# System: A549
# method description: Cytotoxicity against human A549 cells assessed as reduction in cell growth incubated for 48 hrs by CCK8 method
# Type: functional
metric name: CC50 (µM)
Form entry: value (µM) — number only.

C[C@@H]1CC[C@H]2[C@H](C)[C@@H]3CC[C@@H]4[C@@H](C[C@H]5[C@H]4CC(=O)[C@H]4C[C@@H](O)CC[C@@]45C)[C@@H]3CN2C1 :: 31

Query :: Please give the measured CC50 for this compound: CC1=C2C[C@H]3[C@@H](CC(=O)[C@H]4C[C@H](O)CC[C@@]43C)[C@@H]2CC[C@]12O[C@@H]1C[C@H](C)CN[C@H]1[C@H]2C
Result :: 15

Query :: Now try C[C@H]1CC[C@@H]2[C@H](C)[C@@H]3CC[C@@H]4[C@@H](C[C@H]5[C@H]4CC(=O)[C@H]4C[C@@H](O)CC[C@@]45C)[C@@H]3CN2C1 .
Result :: 6.8

src = ChEMBL document CHEMBL5357052
